Origin of the recorded values: ChEMBL document CHEMBL1155843

Known Activity of a selection of compounds
system: MCF7; assay: Cell cycle arrest in human MCF7 cells assessed as accumulation at G2/M phase at 2 times GI50 after 24 hrs by flow cytometry; type: functional

[
  {
    "compound": "O=C(NCCCl)Nc1ccc2c(c1)Cc1ccccc1-2",
    "study_target": "MCF7",
    "units_label": "%",
    "Activity": 32
  },
  {
    "compound": "O=C(NCCCl)Nc1ccccc1",
    "study_target": "MCF7",
    "units_label": "%",
    "Activity": 19
  },
  {
    "compound": "CC(=O)O[C@H]1C(=O)[C@@]2(C)[C@H]([C@H](OC(=O)c3ccccc3)[C@]3(O)C[C@H](OC(=O)[C@H](O)[C@@H](NC(=O)c4ccccc4)c4ccccc4)C(C)=C1C3(C)C)[C@]1(OC(C)=O)CO[C@@H]1C[C@@H]2O",
    "study_target": "MCF7",
    "units_label": "%",
    "Activity": 80
  },
  {
    "compound": "CCC(C)SSc1ncc[nH]1 (stereo unspecified)",
    "study_target": "MCF7",
    "units_label": "%",
    "Activity": 58
  },
  {
    "compound": "O=C(NCCCl)Nc1ccc2c(c1)CCCCC2",
    "study_target": "MCF7",
    "units_label": "%",
    "Activity": 43
  },
  {
    "compound": "CCCC1(c2ccc(NC(=O)NCCCl)cc2)CCCCC1",
    "study_target": "MCF7",
    "units_label": "%",
    "Activity": 13
  },
  {
    "compound": "CC1CCC(Oc2ccc(NC(=O)NCCCl)cc2)CC1 (stereo unspecified)",
    "study_target": "MCF7",
    "units_label": "%",
    "Activity": 25
  },
  {
    "compound": "O=C(NCCCl)Nc1ccc2ccccc2c1",
    "study_target": "MCF7",
    "units_label": "%",
    "Activity": 45
  },
  {
    "compound": "O=C(NCCCl)NC1c2ccccc2-c2ccccc21",
    "study_target": "MCF7",
    "units_label": "%",
    "Activity": 8
  },
  {
    "compound": "CC1CCC(Oc2cccc(NC(=O)NCCCl)c2)CC1 (stereo unspecified)",
    "study_target": "MCF7",
    "units_label": "%",
    "Activity": 15
  },
  {
    "compound": "O=C(NCCCl)Nc1ccc2c(c1)CCCC2",
    "study_target": "MCF7",
    "units_label": "%",
    "Activity": 41
  }
]

----------
system: MCF7; assay: Antiproliferative activity against human MCF7 cells after 48 hrs by sulforhodamine B method; assay type: functional; conditions: MCF7, 48 h
Property: GI50; scope: individual molecules

[
  {
    "molecule": "O=C(NCCCl)Nc1ccc2c(c1)CCCCC2",
    "GI50 / µM": 12
  },
  {
    "molecule": "O=C(NCCCl)Nc1ccc(OC2CCCCCCC2)cc1",
    "GI50 / µM": 18
  },
  {
    "molecule": "CCCC1(c2ccc(NC(=O)NCCCl)cc2)CCCCC1",
    "GI50 / µM": 23
  },
  {
    "molecule": "CC1CCC(Oc2cccc(NC(=O)NCCCl)c2)CC1 (stereo unspecified)",
    "GI50 / µM": 33
  },
  {
    "molecule": "O=C(NCCCl)Nc1cccc(OC2CCCCCCC2)c1",
    "GI50 / µM": 23
  },
  {
    "molecule": "O=C(NCCCl)Nc1cccc(C2CCCCC2)c1",
    "GI50 / µM": 20
  }
]

----------
Listing of entries alongside the reported Activity.
tested on: MCF7; assay: Cell cycle arrest in human MCF7 cells assessed as accumulation at G0/G1 phase at 2 times GI50 after 24 hrs by flow cytometry; type: functional

[
  {
    "compound": "CC1(c2ccc(NC(=O)NCCCl)cc2)CCCCC1",
    "Activity [%]": 60
  },
  {
    "compound": "O=C(NCCCl)Nc1cccc(C2CCCCC2)c1",
    "Activity [%]": 52
  },
  {
    "compound": "O=C(NCCCl)NC1c2ccccc2-c2ccccc21",
    "Activity [%]": 63
  },
  {
    "compound": "O=C(NCCCl)Nc1ccc(C2CCCC2)cc1",
    "Activity [%]": 63
  },
  {
    "compound": "CC1CCC(Oc2ccc(NC(=O)NCCCl)cc2)CC1 (stereo not given)",
    "Activity [%]": 63
  },
  {
    "compound": "O=C(NCCCl)Nc1ccc(Oc2ccccc2)cc1",
    "Activity [%]": 15
  },
  {
    "compound": "CC(=O)O[C@H]1C(=O)[C@@]2(C)[C@H]([C@H](OC(=O)c3ccccc3)[C@]3(O)C[C@H](OC(=O)[C@H](O)[C@@H](NC(=O)c4ccccc4)c4ccccc4)C(C)=C1C3(C)C)[C@]1(OC(C)=O)CO[C@@H]1C[C@@H]2O",
    "Activity [%]": 9
  },
  {
    "compound": "CCC1(c2ccc(NC(=O)NCCCl)cc2)CCCCC1",
    "Activity [%]": 66
  },
  {
    "compound": "CC1CCC(Oc2cccc(NC(=O)NCCCl)c2)CC1 (stereo not given)",
    "Activity [%]": 65
  },
  {
    "compound": "O=C(NCCCl)Nc1ccc2ccccc2c1",
    "Activity [%]": 17
  }
]

----------
tested on: MCF7; assay: Antiproliferative activity against human MCF7 cells after 48 hrs by sulforhodamine B method; type: functional; conditions: MCF7, 48 h
Criterion: GI50 strictly under 7 µM. Met: true. Not met: false.

[
  {
    "molecule": "CCC1(c2ccc(NC(=O)NCCCl)cc2)CCCCC1",
    "study_target": "MCF7",
    "class_assignment": "false"
  },
  {
    "molecule": "CC1(C)CCC(C)(C)c2cc(NC(=O)NCCCl)ccc21",
    "study_target": "MCF7",
    "class_assignment": "true"
  },
  {
    "molecule": "O=C(NCCCl)Nc1ccc(C2CCCC2)cc1",
    "study_target": "MCF7",
    "class_assignment": "false"
  },
  {
    "molecule": "CCCCCCc1ccc(NC(=O)NCCCl)cc1",
    "study_target": "MCF7",
    "class_assignment": "true"
  },
  {
    "molecule": "CC1(c2ccc(NC(=O)NCCCl)cc2)CCCCC1",
    "study_target": "MCF7",
    "class_assignment": "false"
  },
  {
    "molecule": "CC1CCC(Oc2ccc(NC(=O)NCCCl)cc2)CC1 (configuration not stated)",
    "study_target": "MCF7",
    "class_assignment": "false"
  },
  {
    "molecule": "O=C(NCCCl)Nc1ccc2c(c1)CCCC2",
    "study_target": "MCF7",
    "class_assignment": "false"
  }
]

----------
system: MCF7; test: Cell cycle arrest in human MCF7 cells assessed as accumulation at G2/M phase at 2 times GI50 after 24 hrs by flow cytometry; format: functional
Below is a list of entries, each paired with its recorded Activity value.

[
  {
    "compound": "CCC1(c2ccc(NC(=O)NCCCl)cc2)CCCCC1",
    "Activity / %": 17
  },
  {
    "compound": "O=C(NCCCl)Nc1cccc(Oc2ccccc2)c1",
    "Activity / %": 30
  },
  {
    "compound": "O=C(NCCCl)Nc1ccc(OC2CCCCCCC2)cc1",
    "Activity / %": 16
  },
  {
    "compound": "CCCCCCc1ccc(NC(=O)NCCCl)cc1",
    "Activity / %": 43
  },
  {
    "compound": "O=C(NCCCl)Nc1cccc(C2CCCCC2)c1",
    "Activity / %": 16
  },
  {
    "compound": "CC1(C)CCC(C)(C)c2cc(NC(=O)NCCCl)ccc21",
    "Activity / %": 74
  },
  {
    "compound": "CC1(c2ccc(NC(=O)NCCCl)cc2)CCCCC1",
    "Activity / %": 31
  },
  {
    "compound": "O=C(NCCCl)Nc1cccc(OC2CCCCCCC2)c1",
    "Activity / %": 10
  },
  {
    "compound": "O=C(NCCCl)Nc1ccc(Oc2ccccc2)cc1",
    "Activity / %": 65
  },
  {
    "compound": "O=C(NCCCl)Nc1ccc(C2CCCC2)cc1",
    "Activity / %": 13
  },
  {
    "compound": "O=C(NCCCl)Nc1ccc2c(c1)CCC2",
    "Activity / %": 40
  },
  {
    "compound": "CCNC(=O)Nc1ccc(C2CCCCC2)cc1",
    "Activity / %": 22
  }
]
